# method_notes: Evaluation of storage stability of ink (40° C. for 3 months, insoluble matter and clogging)
# Type: physicochemical
# particulars: recording liquid stored at 40° C. for 3 months; insoluble matter and clogging
# Procedure: The prepared ink was filled in an ink cartridge for a piezo-type ink-jet printer EM-930C (manufactured by Seiko Epson). The printing was performed with this printer, and the light fastness was evaluated. Further, the storage stability of the ink was evaluated. (C) Evaluation of Storage Stability of Ink: […]
quantity: (C) storage stability

>>> readout_value("Cc1c(N=Nc2c(C(=O)O)cccc2C(=O)O)c(O)n(CCNc2nc(NCCn3c(O)c(N=Nc4c(C(=O)O)cccc4C(=O)O)c(C)c(C#N)c3=O)nc(NCCn3c(O)c(N=Nc4c(C(=O)O)cccc4C(=O)O)c(C)c(C#N)c3=O)n2)c(=O)c1C#N")
"Δ"
>>> readout_value("Cc1c(N=Nc2cccc(C(=O)O)c2C(=O)O)c(O)n(CCNc2nc(NCCn3c(O)c(N=Nc4cccc(C(=O)O)c4C(=O)O)c(C)c(C#N)c3=O)nc(NCCn3c(O)c(N=Nc4cccc(C(=O)O)c4C(=O)O)c(C)c(C#N)c3=O)n2)c(=O)c1C#N")
"Δ"
>>> readout_value("CCc1c(N=Nc2cc(C(=O)O)ccc2C(=O)O)c(O)n(CCNc2nc(Cl)nc(NCCn3c(O)c(N=Nc4cc(C(=O)O)ccc4C(=O)O)c(C(F)(F)F)c(C#N)c3=O)n2)c(=O)c1C#N")
"Δ"
>>> readout_value("Cc1c(N=Nc2cc(C(=O)O)ccc2C(=O)O)c(O)n(-c2cc(S(=O)(=O)O)cc(S(=O)(=O)O)c2)c(=O)c1C#N")
"◯"
>>> readout_value("Cc1c(N=Nc2cccc(C(=O)O)c2C(=O)O)c(O)n(CCCNc2nc(Cl)nc(NCCCn3c(O)c(N=Nc4cccc(C(=O)O)c4C(=O)O)c(C)c(C#N)c3=O)n2)c(=O)c1C#N")
"Δ"
>>> readout_value("Cc1c(N=Nc2cc(C(=O)O)ccc2C(=O)O)c(O)n(CCCCCCNC(=O)c2cc(C(=O)O)c(C(=O)NCCCCCCn3c(O)c(N=Nc4cc(C(=O)O)ccc4C(=O)O)c(C)c(C#N)c3=O)cc2C(=O)O)c(=O)c1C#N")
"◯"

###

# method_notes: Solubility in water of the salt
# particulars: salt type M1 to M4
Solubility in water by entry:
quantity: Solubility in water

>>> readout_value("Cc1c(C(=O)O)ccc(C(=O)O)c1N=Nc1c(O)[nH]c(=O)c(C#N)c1C")
">5%"
>>> readout_value("Cc1c(N=Nc2cccc(C(=O)O)c2C(=O)O)c(O)n(CCCC(=O)O)c(=O)c1C#N")
">5%"
>>> readout_value("Cc1c(N=Nc2cc(C(=O)O)ccc2C(=O)O)c(O)n(Cc2cc(S(=O)(=O)O)cc(S(=O)(=O)O)c2)c(=O)c1C#N")
">10%"
>>> readout_value("Cc1c(N=Nc2cccc(C(=O)O)c2C(=O)O)c(O)n(C(=O)O)c(=O)c1C#N")
">5%"
>>> readout_value("Cc1c(N=Nc2c(C(=O)O)cccc2C(=O)O)c(O)[nH]c(=O)c1C#N")
">5%"
>>> readout_value("Cc1c(N=Nc2c(C(=O)O)cccc2C(=O)O)c(O)n(C(O)CO)c(=O)c1C#N (stereo not shown)")
">5%"
>>> readout_value("Cc1c(N=Nc2cccc(C(=O)O)c2C(=O)O)c(O)n(CCS(=O)(=O)O)c(=O)c1C#N")
">5%"
>>> readout_value("Cc1c(N=Nc2cc(C(=O)O)ccc2C(=O)O)c(O)n(CC(=O)O)c(=O)c1C#N")
">5%"
>>> readout_value("Cc1c(N=Nc2cccc(C(=O)O)c2C(=O)O)c(O)[nH]c(=O)c1C#N")
">3%"
>>> readout_value("Cc1c(C(=O)O)ccc(C(=O)O)c1N=Nc1c(C)c(C#N)c(=O)n(CCCS(=O)(=O)O)c1O")
">5%"
>>> readout_value("Cc1c(C(=O)O)ccc(C(=O)O)c1N=Nc1c(C)c(C#N)c(=O)n(CC(O)CC(=O)O)c1O (stereo not shown)")
">8%"
>>> readout_value("Cc1c(N=Nc2cc(S(=O)(=O)O)c(C(=O)O)cc2C(=O)O)c(O)[nH]c(=O)c1C#N")
">10%"
>>> readout_value("Cc1c(N=Nc2cc(C(=O)O)ccc2C(=O)O)c(O)n(-c2cc(S(=O)(=O)O)cc(S(=O)(=O)O)c2)c(=O)c1C#N")
">8%"
>>> readout_value("Cc1c(N=Nc2cccc(C(=O)O)c2C(=O)O)c(O)n(Cc2ccc(C(=O)O)cc2)c(=O)c1C#N")
">5%"
>>> readout_value("Cc1c(N=Nc2cc(C(=O)O)ccc2C(=O)O)c(O)[nH]c(=O)c1C#N")
">3%"
>>> readout_value("CNC(=O)c1cc(C(=O)O)c(N=Nc2c(O)[nH]c(=O)c(C#N)c2C)cc1C(=O)O")
">3%"
>>> readout_value("Cc1c(N=Nc2cc(Cl)cc(C(=O)O)c2C(=O)O)c(O)[nH]c(=O)c1C#N")
">3%"
>>> readout_value("Cc1c(N=Nc2cc(S(=O)(=O)O)ccc2C(=O)O)c(O)n(CCC(=O)O)c(=O)c1C#N")
">5%"
>>> readout_value("Cc1c(N=Nc2cccc(C(=O)O)c2C(=O)O)c(O)n(CS(=O)(=O)O)c(=O)c1C#N")
">5%"

###

# method_notes: Evaluation of light fastness-2 (OD value of printed portion after 400 hours xenon fadeometer)
# Assay type: physicochemical
# particulars: ink prepared as in Example 1 from the salt named in the row; OD value of printed portion after 400 hours xenon fadeometer
quantity: (A)-2 light fastness-2

>>> readout_value("Cc1c(N=Nc2ccccc2C(=O)O)c(O)n(CCNC(=O)c2cc(C(=O)O)c(C(=O)NCCn3c(O)c(N=Nc4ccccc4C(=O)O)c(C)c(C#N)c3=O)cc2C(=O)O)c(=O)c1C#N")
"⊚"
>>> readout_value("N#Cc1c(-c2ccccc2)c(N=Nc2cc(C(=O)O)ccc2C(=O)O)c(O)n(CCCCCCNC(=O)c2cc(C(=O)O)c(C(=O)NCCCCCCn3c(O)c(N=Nc4cc(C(=O)O)ccc4C(=O)O)c(-c4ccccc4)c(C#N)c3=O)cc2C(=O)O)c1=O")
"⊚"
>>> readout_value("Cc1c(N=Nc2cc(C(=O)O)ccc2C(=O)O)c(O)n(CCNC(=O)c2ccc(C(=O)NCCn3c(O)c(N=Nc4cc(C(=O)O)ccc4C(=O)O)c(C)c(C#N)c3=O)c(C(=O)NCCn3c(O)c(N=Nc4cc(C(=O)O)ccc4C(=O)O)c(C)c(C#N)c3=O)c2)c(=O)c1C#N")
"⊚"
>>> readout_value("Cc1c(N=Nc2cc(C(=O)O)ccc2C(=O)O)c(O)n(CC(=O)O)c(=O)c1C#N")
"⊚"
>>> readout_value("Cc1c(N=Nc2cc(C(=O)[O-])ccc2C(=O)[O-])c(O)n(CCNc2nc(Cl)nc(NCCn3c(O)c(N=Nc4cc(C(=O)[O-])ccc4C(=O)[O-])c(C)c(C#N)c3=O)n2)c(=O)c1C#N.[K+].[K+].[K+].[K+] [potassium salt of compound No. 245]")
"∘"

###

# method_notes: Evaluation of moisture resistance (image-recorded paper at 40° C. and humidity 85%, visual observation)
# Assay type: physicochemical
# particulars: image-recorded paper at 40° C. and humidity 85%, visually observed
quantity: (B) moisture resistance

>>> readout_value("Cc1c(N=Nc2cc(C(=O)O)ccc2C(=O)O)c(O)n(CCn2c(=O)c3cc4c(=O)n(CCn5c(O)c(N=Nc6cc(C(=O)O)ccc6C(=O)O)c(C)c(C#N)c5=O)c(=O)c4cc3c2=O)c(=O)c1C#N [Compound 342]")
"⊚"
>>> readout_value("Cc1c(N=Nc2cccc(C(=O)O)c2C(=O)O)c(O)[nH]c(=O)c1C#N [Compound No. 1]")
"◯"
>>> readout_value("Cc1c(N=Nc2cc(C(=O)O)ccc2C(=O)O)c(O)n(-c2cc(S(=O)(=O)O)cc(S(=O)(=O)O)c2)c(=O)c1C#N [compound 142]")
"◯"
>>> readout_value("N#Cc1c(C(F)(F)F)c(N=Nc2cc(C(=O)O)ccc2C(=O)O)c(O)n(CCNc2nc(Cl)nc(NCCn3c(O)c(N=Nc4cc(C(=O)O)ccc4C(=O)O)c(C(F)(F)F)c(C#N)c3=O)n2)c1=O [Compound 248]")
"⊚"
>>> readout_value("Cc1c(N=Nc2cc(C(=O)O)ccc2C(=O)O)c(O)n(CCCCCCNc2nc(NCCCCCCn3c(O)c(N=Nc4cc(C(=O)O)ccc4C(=O)O)c(C)c(C#N)c3=O)nc(NCCCCCCn3c(O)c(N=Nc4cc(C(=O)O)ccc4C(=O)O)c(C)c(C#N)c3=O)n2)c(=O)c1C#N [Compound 264]")
"⊚"

###

# method_notes: Evaluation of moisture resistance (image-recorded paper at 40° C. and humidity 85%, visual observation)
# Format: physicochemical
# particulars: image-recorded paper at 40° C. and humidity 85%, visually observed
quantity: (B) moisture resistance

>>> readout_value("Cc1c(N=Nc2cc(C(=O)O)ccc2C(=O)O)c(O)n(CCNc2nc(O)nc(NCCn3c(O)c(N=Nc4cc(C(=O)O)ccc4C(=O)O)c(C)c(C#N)c3=O)n2)c(=O)c1C#N [Compound 294]")
"⊚"
>>> readout_value("Cc1c(N=Nc2cc(C(=O)O)ccc2C(=O)O)c(O)n(CCCCCCNC(=O)c2cc(C(=O)O)c(C(=O)NCCCCCCn3c(O)c(N=Nc4cc(C(=O)O)ccc4C(=O)O)c(C)c(C#N)c3=O)cc2C(=O)O)c(=O)c1C#N [Compound 281]")
"⊚"
>>> readout_value("Cc1c(N=Nc2cccc(C(=O)O)c2C(=O)O)c(O)n(CS(=O)(=O)O)c(=O)c1C#N [compound 105]")
"Δ"
>>> readout_value("N#Cc1c(C(F)(F)F)c(N=Nc2cc(C(=O)O)ccc2C(=O)O)c(O)n(CCNC(=O)c2cc(C(=O)O)c(C(=O)NCCn3c(O)c(N=Nc4cc(C(=O)O)ccc4C(=O)O)c(C(F)(F)F)c(C#N)c3=O)cc2C(=O)O)c1=O [Compound 291]")
"⊚"
>>> readout_value("Cc1c(N=Nc2ccccc2C(=O)O)c(O)n(CCNC(=O)c2cc(C(=O)O)c(C(=O)NCCn3c(O)c(N=Nc4ccccc4C(=O)O)c(C)c(C#N)c3=O)cc2C(=O)O)c(=O)c1C#N [Compound 323]")
"⊚"
>>> readout_value("Cc1c(N=Nc2c(C(=O)O)cccc2C(=O)O)c(O)n(CCNc2nc(NCCn3c(O)c(N=Nc4c(C(=O)O)cccc4C(=O)O)c(C)c(C#N)c3=O)nc(NCCn3c(O)c(N=Nc4c(C(=O)O)cccc4C(=O)O)c(C)c(C#N)c3=O)n2)c(=O)c1C#N [Compound 267]")
"⊚"
>>> readout_value("CCCCc1c(N=Nc2cc(C(=O)O)ccc2C(=O)O)c(O)n(CCNc2nc(Cl)nc(NCCn3c(O)c(N=Nc4cc(C(=O)O)ccc4C(=O)O)c(CCCC)c(C#N)c3=O)n2)c(=O)c1C#N [Compound 278]")
"⊚"
>>> readout_value("Cc1c(N=Nc2cc(C(=O)O)ccc2C(=O)O)c(O)n(CCCCCCNc2nc(Cl)nc(NCCCCCCn3c(O)c(N=Nc4cc(C(=O)O)ccc4C(=O)O)c(C)c(C#N)c3=O)n2)c(=O)c1C#N [Compound No. 246]")
"⊚"
>>> readout_value("CCc1c(N=Nc2cc(C(=O)O)ccc2C(=O)O)c(O)n(CCCNC(=O)c2cc(C(=O)O)c(C(=O)NCCCn3c(O)c(N=Nc4cc(C(=O)O)ccc4C(=O)O)c(C)c(C#N)c3=O)cc2C(=O)O)c(=O)c1C#N [Compound 280]")
"⊚"
>>> readout_value("CNC(=O)c1cc(C(=O)O)c(N=Nc2c(O)[nH]c(=O)c(C#N)c2C)cc1C(=O)O [compound 14]")
"◯"
